For each entry below, report its Post-emergence action against SETVI value.
Test system: Setaria viridis (SETVI)
experiment: Post-emergence herbicidal action against SETVI
Assay type: in vivo
conditionInfo: 20 g/ha, post-emergence at one-leaf stage, rated visually after about 3 weeks vs untreated controls
Numbers only, in %.

Cn1ncc(C(=O)c2ccc(C(F)(F)C(F)(F)F)c3c2OCS3)c1O [Example 1-128]: 90

Kindly give each listed record's Post-emergence action against SETVI.
1. Cn1ncc(C(=O)c2ccc(C(F)(F)F)c3c2OCCS3)c1O [Example 1-15]
2. Cc1nn(C)c(O)c1C(=O)c1ccc(C(F)(F)F)c2c1OCC[S+]2[O-] (centres unmarked) [Example 1-40]
3. CCn1ncc(C(=O)c2ccc(C(F)(F)F)c3c2OCCS3(=O)=O)c1O [Example 1-50]
4. Cn1nc(C2CC2)c(C(=O)c2ccc(C(F)(F)F)c3c2OCC[S+]3[O-])c1O (centres unmarked) [Example 1-116]
5. CCn1ncc(C(=O)c2ccc(C(F)(F)F)c3c2SCCS3)c1O [Example 1-65]

Response:
1: 80; 2: 80; 3: 80; 4: 90; 5: 100

====

System: Setaria viridis (SETVI)
experiment: Post-emergence herbicidal action against SETVI
Type: in vivo
conditionInfo: 20 g/ha, post-emergence at one-leaf stage, rated visually after about 3 weeks vs untreated controls
readout: Post-emergence action against SETVI (%)
One number for each entry, in %.

Record excerpt, results attached:
Cn1ncc(C(=O)c2ccc(C(F)(F)F)c3c2OCS3)c1O: 100
CCn1ncc(C(=O)c2ccc(C(F)(F)C(F)(F)F)c3c2OCS3)c1O: 80
CCn1ncc(C(=O)c2ccc(C(F)(F)F)c3c2OCCS3)c1O: 80
CCn1ncc(C(=O)c2ccc(C(F)(F)F)c3c2OCC[S+]3[O-])c1O (centres unmarked): 100
Cn1ncc(C(=O)c2ccc(C(F)(F)F)c3c2SCS3)c1O: 80

Kindly give each listed record's Post-emergence action against SETVI.
1. Cn1ncc(C(=O)c2ccc(C(F)(F)F)c3c2OCC[S+]3[O-])c1O (centres unmarked)
2. CCn1ncc(C(=O)c2ccc(C(F)(F)F)c3c2OCS3)c1O
3. Cn1ncc(C(=O)c2ccc(C(F)(F)F)c3c2OC[S+]3[O-])c1O (centres unmarked)

Response:
1: 90; 2: 80; 3: 90
